Values compiled from ChEMBL document CHEMBL4673284.

test system: MT4; test: Cytotoxicity against human MT-4 cells assessed as inhibition of cell viability incubated for 48 hrs by MTS/PES assay; assay type: cell-based; conditions: mt4, 48 h
measurement.type: CC50

structure_smiles_string=C=C1CN(S(=O)(=O)c2ccc(C)cc2)CCc2cc(CC(C)C)cc(n2)CCN(S(=O)(=O)c2ccc(C)cc2)C1.Cl measurement_type=CC50 measured_result="87.9 µM"
structure_smiles_string=C=C1CN(S(=O)(=O)c2ccc(C)cc2)CCc2cc(C(C)(C)C)cc(n2)CCN(S(=O)(=O)c2ccc(C)cc2)C1.Cl measurement_type=CC50 measured_result="> 100 µM"
structure_smiles_string=Br.C=C1CN(S(=O)(=O)c2ccc(C)cc2)CCc2cc(O)cc(n2)CCN(S(=O)(=O)c2ccc(C)cc2)C1 measurement_type=CC50 measured_result="> 100 µM"
structure_smiles_string=C=C1CN(S(=O)(=O)c2ccc(C)cc2)CCc2cc(CC)cc(n2)CCN(S(=O)(=O)c2ccc(C)cc2)C1 measurement_type=CC50 measured_result="> 100 µM"
structure_smiles_string=C=C1CN(S(=O)(=O)c2ccc(C)cc2)CCc2cc(OC)cc(n2)CCN(S(=O)(=O)c2ccc(C)cc2)C1.Cl measurement_type=CC50 measured_result="> 100 µM"
structure_smiles_string=C=C1CN(S(=O)(=O)c2ccc(C)cc2)CCc2cc(OCC)cc(n2)CCN(S(=O)(=O)c2ccc(C)cc2)C1.Cl measurement_type=CC50 measured_result="> 100 µM"
structure_smiles_string=C=C1CN(S(=O)(=O)c2ccc(N(C)C)cc2)CCc2cc(CC)cc(n2)CCN(S(=O)(=O)c2ccc(N(C)C)cc2)C1 measurement_type=CC50 measured_result="> 100 µM"
structure_smiles_string=C=C1CN(S(=O)(=O)c2ccc(C)cc2)CCc2cc(CCCC)cc(n2)CCN(S(=O)(=O)c2ccc(C)cc2)C1 measurement_type=CC50 measured_result="65.8 µM"

* * *

target: T-cell surface glycoprotein CD4 (Homo sapiens, UniProt P01730); test: Binding affinity to signal peptide of human CD4-YFP expressed in CHO-K1 cells assessed down-modulation of CD4 surface expression incubated for 24 hrs by flow cytometry
Documented IC50 across a set of compounds
measurement.type: IC50 (nM)

compound=C=C1CN(S(=O)(=O)c2ccc(C)cc2)CCc2cc(OCc3ccccc3)cc(n2)CCN(S(=O)(=O)c2ccc(C)cc2)C1 unit_name=nM measured_result=420
compound="C=C1CN(S(=O)(=O)c2ccc(C)cc2)CCCN(Cc2ccccc2)CCCN(S(=O)(=O)c2ccc(C)cc2)C1.Cl [CYCLOTRIAZADISULFONAMIDE HYDROCHLORIDE]" unit_name=nM measured_result=330
compound=C=C1CN(S(=O)(=O)c2ccc(C)cc2)CCc2cc(CCCC)cc(n2)CCN(S(=O)(=O)c2ccc(C)cc2)C1 unit_name=nM measured_result=540
compound=C=C1CN(S(=O)(=O)c2ccc(C)cc2)CCc2cc(CCC)cc(n2)CCN(S(=O)(=O)c2ccc(C)cc2)C1.Cl unit_name=nM measured_result=830
compound=Br.C=C1CN(S(=O)(=O)c2ccc(C)cc2)CCc2cc(O)cc(n2)CCN(S(=O)(=O)c2ccc(C)cc2)C1 unit_name=nM measured_result=9300
compound=C=C1CN(S(=O)(=O)c2ccc(C)cc2)CCc2cccc(n2)CCN(S(=O)(=O)c2ccc(C)cc2)C1 unit_name=nM measured_result=2810
compound=C=C1CN(S(=O)(=O)c2ccc(C)cc2)CCc2cc(C)cc(n2)CCN(S(=O)(=O)c2ccc(C)cc2)C1 unit_name=nM measured_result=1670
compound=C=C1CN(S(=O)(=O)c2ccc(C)cc2)CCc2cc(C(C)(C)C)cc(n2)CCN(S(=O)(=O)c2ccc(C)cc2)C1.Cl unit_name=nM measured_result=950
compound=C=C1CN(S(=O)(=O)c2ccc(C)cc2)CCc2cc(OCC)cc(n2)CCN(S(=O)(=O)c2ccc(C)cc2)C1.Cl unit_name=nM measured_result=1500
compound=C=C1CN(S(=O)(=O)c2ccc(N(C)C)cc2)CCc2cc(CC)cc(n2)CCN(S(=O)(=O)c2ccc(N(C)C)cc2)C1 unit_name=nM measured_result=220
compound=C=C1CN(S(=O)(=O)c2ccc(C)cc2)CCc2cc(OCC3CCCCC3)cc(n2)CCN(S(=O)(=O)c2ccc(C)cc2)C1.Cl unit_name=nM measured_result=130
compound=C=C1CN(S(=O)(=O)c2ccc(C)cc2)CCc2cc(CC(C)C)cc(n2)CCN(S(=O)(=O)c2ccc(C)cc2)C1.Cl unit_name=nM measured_result=660
compound=C=C1CN(S(=O)(=O)c2ccc(C)cc2)CCc2cc(CC)cc(n2)CCN(S(=O)(=O)c2ccc(C)cc2)C1 unit_name=nM measured_result=860
compound=C=C1CN(S(=O)(=O)c2ccc(C)cc2)CCc2cc(-c3ccccc3)cc(n2)CCN(S(=O)(=O)c2ccc(C)cc2)C1.Cl unit_name=nM measured_result=740
compound=C=C1CN(S(=O)(=O)c2ccc(C)cc2)CCc2cc(OC)cc(n2)CCN(S(=O)(=O)c2ccc(C)cc2)C1.Cl unit_name=nM measured_result=1880
